# Tested on: primary human hepatic stellate cells (donor 1)
# Assay Notes: scaled lipid accumulation score (0 = DMSO-like, 1 = nortriptyline-like); higher = stronger HSC inactivation (lipid re-accumulation), active = hit call of the paper
# Condition Context: library stock concentration: 10 mM; 48 h
Counter-ions that a name gives are not always drawn. In all, about 5,800 compounds went through this assay and about 620 (11%) showed activity. The sample holds actives, similar compounds and a random draw of the others, so the mix is not that of the screen.

[
  {
    "Compound": "C=C[C@H]1CN2CC[C@H]1C[C@H]2[C@H](OC(=O)OCC)c1ccnc2ccc(OC)cc12 [Quinine ethyl carbonate]",
    "scaled lipid accumulation score": "0.318 (inactive)"
  },
  {
    "Compound": "C#CC(C)(O)CC (stereo not given)",
    "scaled lipid accumulation score": "≤ 0 (inactive)"
  },
  {
    "Compound": "CN1CC[C@@H]2CN3CCc4cccc(c43)[C@@H]2C1 [SDZ SER 082 fumarate]",
    "scaled lipid accumulation score": "≤ -0.006 (inactive)"
  },
  {
    "Compound": "Cc1c2ccncc2c(C)c2c1[nH]c1ccccc12 [Ellipticine]",
    "scaled lipid accumulation score": "≤ -0.07 (inactive)"
  },
  {
    "Compound": "CC1=NCCc2c1[nH]c1cc(O)ccc21 [Harmalol hydrochloride]",
    "scaled lipid accumulation score": "≤ 0 (inactive)"
  },
  {
    "Compound": "NCCc1ccccn1",
    "scaled lipid accumulation score": "≤ 0 (inactive)"
  },
  {
    "Compound": "c1ccc(C2CNCc3ccccc32)cc1 (stereo not given) [4-Phenyl-1,2,3,4-tetrahydroisoquinoline hydrochloride]",
    "scaled lipid accumulation score": "0.217 (inactive)"
  },
  {
    "Compound": "CC(=O)[O][Hg][c]1ccccc1 [Phenylmercuric acetate]",
    "scaled lipid accumulation score": "0.358 (inactive)"
  },
  {
    "Compound": "COc1ccc(CCN)cc1OC [Homoveratrylamine]",
    "scaled lipid accumulation score": "0.046 (inactive)"
  },
  {
    "Compound": "CS(=O)(=O)Nc1ccc(Cc2noc(-c3ccc4[nH]cc(CCN)c4c3)n2)cc1",
    "scaled lipid accumulation score": "≤ 0 (inactive)"
  }
]

###

# Tested on: primary human hepatic stellate cells (donor 1)
# Assay Notes: scaled lipid accumulation score (0 = DMSO-like, 1 = nortriptyline-like); higher = stronger HSC inactivation (lipid re-accumulation), active = hit call of the paper
# Condition Context: library stock concentration: 10 mM; 48 h
Counter-ions that a name gives are not always drawn. In all, about 5,800 compounds went through this assay and about 620 (11%) showed activity.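 How the source made its calls: active = score above a cut-off or among the top three wells of a plate; in these data no inactive exceeds 0.85.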 The list comes from a sample in which actives are over-represented; it also holds close analogues and randomly drawn compounds.
Labels: active, inactive

[
  {
    "Molecule": "C=C(C)[C@@H]1[C@H]2OC(=O)[C@@H]1[C@]1(O)C[C@H]3O[C@]34C(=O)O[C@H]2[C@]14C.CC(C)(O)[C@@H]1[C@H]2OC(=O)[C@@H]1[C@]1(O)C[C@H]3O[C@]34C(=O)O[C@H]2[C@]14C",
    "Cat": "inactive"
  },
  {
    "Molecule": "CC(N)Cc1cnc[nH]1 (configuration not stated)",
    "Cat": "inactive"
  },
  {
    "Molecule": "CN1[C@@H]2CC[C@H]1C[C@@H](OC(=O)C(CO)c1ccccc1)C2 (some centres not stated)",
    "Cat": "inactive"
  },
  {
    "Molecule": "CN1[C@@H]2CC[C@H]1C[C@@H](OC(=O)[C@H](CO)c1ccccc1)C2",
    "Cat": "inactive"
  },
  {
    "Molecule": "O=C(CCCN1CCC2(CC1)C(=O)NCN2c1ccccc1)c1ccc(F)cc1",
    "Cat": "inactive"
  },
  {
    "Molecule": "O=C1Nc2ccc(Cl)cc2C(c2ccccc2Cl)=NC1O (configuration not stated)",
    "Cat": "inactive"
  },
  {
    "Molecule": "CN1CC(CNC(=O)OCc2ccccc2)C[C@H]2c3cccc4c3c(cn4C)CC21 (some centres not stated)",
    "Cat": "active"
  },
  {
    "Molecule": "Clc1ccc(N2CCN(Cc3c[nH]c4ncccc34)CC2)cc1 [L-745,870 trihydrochloride]",
    "Cat": "inactive"
  },
  {
    "Molecule": "O=C(O)CCC(CP(=O)(O)O)C(=O)O (configuration not stated)",
    "Cat": "inactive"
  },
  {
    "Molecule": "OC1CCCCC1N1CCC(c2ccccc2)CC1 (configuration not stated)",
    "Cat": "inactive"
  },
  {
    "Molecule": "CC1=C(O)C(=O)C=C2C1=CC=C1[C@@]2(C)CC[C@@]2(C)[C@@H]3C[C@](C)(C(=O)O)CC[C@]3(C)CC[C@]12C",
    "Cat": "inactive"
  },
  {
    "Molecule": "CN1C2CC(O)CC1C1OC12 (configuration not stated)",
    "Cat": "inactive"
  },
  {
    "Molecule": "CC(N)Cc1c[nH]c2ccc(O)cc12 (configuration not stated)",
    "Cat": "inactive"
  },
  {
    "Molecule": "CN1[C@@H]2CC[C@H]1CC(OC(=O)N1Cc3ccccc3NC1=O)C2 (some centres not stated) [DAU 5884 hydrochloride]",
    "Cat": "inactive"
  },
  {
    "Molecule": "CCN1CCN(C(=O)Cc2ccc(Nc3ncc(F)c(Nc4ccc(C(=O)Nc5ccccc5Cl)cc4)n3)cc2)CC1",
    "Cat": "active"
  },
  {
    "Molecule": "CC(=O)OCC1=C(C(=O)[O-])N2C(=O)[C@@H](NC(=O)CCC[C@@H](N)C(=O)[O-])[C@H]2SC1.[Zn+2] [Cephalosporin C zinc salt]",
    "Cat": "inactive"
  },
  {
    "Molecule": "Cl.Clc1ccc(N2CCN(Cc3c[nH]c4ncccc34)CC2)cc1 [L-745,870 hydrochloride]",
    "Cat": "active"
  },
  {
    "Molecule": "CC(N)Cc1c[nH]c2ccc(O)cc12 (stereo not drawn) [alpha-Methyl-5-hydroxytryptamine maleate]",
    "Cat": "inactive"
  },
  {
    "Molecule": "Cn1c2c(c3ccccc31)CCNCC2",
    "Cat": "inactive"
  },
  {
    "Molecule": "CC(N)Cc1c[nH]c2ccc(OCc3cccs3)cc12.Cl (configuration not stated)",
    "Cat": "active"
  },
  {
    "Molecule": "CC(C(=O)OC1CC2CCC(C1)N2C)c1ccc(Br)cc1.O=C(O)/C=C\\C(=O)O (configuration not stated) [PG-9 maleate]",
    "Cat": "active"
  },
  {
    "Molecule": "OC1CCCCC1N1CCC(c2ccccc2)CC1 (configuration not stated) [Vesamicol hydrochloride]",
    "Cat": "inactive"
  },
  {
    "Molecule": "O=C1C=C2C(C(C)=C1O)=CC=C3[C@]2(CCC4([C@@H]5C[C@@](CC[C@@]5(CC[C@]34C)C)([C@@](O)=O)C)C)C (some centres not stated)",
    "Cat": "active"
  },
  {
    "Molecule": "CC(C)(C)NCC(O)COc1cccc2[nH]c(C#N)cc12 (configuration not stated) [Cyanopindolol hemifumarate]",
    "Cat": "inactive"
  },
  {
    "Molecule": "CCC(Oc1ccc(Cl)cc1)C(=O)OC1CC2CCC(C1)N2C.O=C(O)/C=C\\C(=O)O (configuration not stated) [SM-21 maleate]",
    "Cat": "active"
  },
  {
    "Molecule": "C/C=C(\\C)C(=O)N[C@@H](c1ccccc1)[C@@H](O)C(=O)O[C@H]1C[C@@]2(O)[C@@H](OC(=O)c3ccccc3)[C@@H]3[C@]4(OC(C)=O)CO[C@@H]4C[C@H](O)[C@@]3(C)C(=O)[C@H](OC(C)=O)C(=C1C)C2(C)C",
    "Cat": "inactive"
  },
  {
    "Molecule": "CC[C@@H]1C=CC=CC[C@H](C)[C@@H](O)[C@@H](C)C(=O)[C@H](C)[C@@H](O)[C@H](C)C(=O)[C@H](C)[C@@H](O)[C@H](C)C=CC(=O)O[C@H]2[C@@H](C)[C@@H](CC1)O[C@@]1(CC[C@@H](C)[C@@H](C[C@H](C)O)O1)[C@@H]2C",
    "Cat": "inactive"
  },
  {
    "Molecule": "CCC(N)C(O)c1ccc(O)c(O)c1 (configuration not stated) [Ethylnorepinephrine hydrochloride]",
    "Cat": "inactive"
  },
  {
    "Molecule": "CNCCc1c[nH]c2ccc(O)cc12 [N-omega-Methyl-5-hydroxytryptamine oxalate salt]",
    "Cat": "inactive"
  },
  {
    "Molecule": "COC(=O)N1CCN(C(=O)Cc2ccc(Cl)c(Cl)c2)C(CN2CCCC2)C1.O=C(O)/C=C/C(=O)O (configuration not stated)",
    "Cat": "active"
  }
]

// provenance: the supplement of paper PMC9135407
